- target: glutathione-S-transferase (GST) tagged LXRalpha LBD (ligand binding domain) (Homo sapiens)
- Construct: purchased Invitrogen pv4655
- Sequence (Q13133 209-447 limits assumed): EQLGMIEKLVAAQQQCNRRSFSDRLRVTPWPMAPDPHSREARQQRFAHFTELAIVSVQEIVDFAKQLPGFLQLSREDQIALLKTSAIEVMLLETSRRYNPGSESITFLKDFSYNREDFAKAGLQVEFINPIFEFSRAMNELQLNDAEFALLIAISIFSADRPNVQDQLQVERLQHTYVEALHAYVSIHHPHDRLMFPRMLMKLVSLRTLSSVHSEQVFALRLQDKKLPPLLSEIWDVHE
- experimental-details: LanthaScreen TR-FRET Liver X Receptor Coactivator Assay, co-activator recruitment to LXRalpha LBD
- Assay type: biochemical
- conditions-used: efficacy at max dose, in relation to reference dual agonist T0901317; read-out: LXR alpha Activity @ max dose (%)
measurement-kind: Emax (%)

Worked cases, answers included:
Q: Would you kindly share the measured Emax for CN(Cc1cncs1)C(=O)c1ccc(N2CCC(CC3CCN(C(=O)[C@](O)(c4ccccc4)C(F)(F)F)CC3)CC2)cc1Cl ?
Ans: 34

Q: Entry to check: CCN(C)C(=O)c1ccc(N2CCC(CC3CCN(C(=O)[C@](O)(c4ccccc4)C(F)(F)F)CC3)CC2)cc1Cl
Ans: 34

P. CN(C)C(=O)c1ccc(N2CCC(CC3CCN(C(=O)C(O)(c4cccnc4)C(F)(F)F)CC3)CC2)cc1Cl (stereo not drawn)
Q. Cc1cc(N2CCC(CC3CCN(C(=O)[C@](O)(c4cccc(C(C)C)c4)C(F)(F)F)CC3)CC2)ccc1C(=O)N(C)C
R. COc1cccc([C@@](O)(C(=O)N2CCC(CC3CCN(c4ccc(C(=O)N(C)C)c(Cl)c4)CC3)C2)C(F)(F)F)c1 (stereo partly drawn)
S. CN(C)C(=O)c1ccc(N2CCC(CC3CCN(C(=O)[C@](O)(c4cc(Cl)cc(Cl)c4)C(F)(F)F)CC3)CC2)cc1Cl
Q: Returns the items ordered by Emax, from maximum to minimum. I'd appreciate it if you listed the labels in the requested order.
Ans: P, Q, S, R
(P: 46%, Q: 14%, S: 7%, R: 0%)

---

- target: glutathione-S-transferase (GST) tagged LXRalpha LBD (ligand binding domain) (Homo sapiens)
- Construct: purchased Invitrogen pv4655
- experimental-details: LanthaScreen TR-FRET Liver X Receptor Coactivator Assay, co-activator recruitment to LXRalpha LBD
- Format: biochemical
- conditions-used: efficacy at max dose, in relation to reference dual agonist T0901317; read-out: LXR alpha Activity @ max dose (%)
measurement-kind: Emax (%)

Worked cases, answers included:
Q: Would you kindly share the measured Emax for CNC(=O)c1ccc(N2CCC(CC3CCN(C(=O)C(O)(c4cccc(C(F)(F)F)c4)C(F)(F)F)CC3)CC2)cc1Cl (stereo not drawn) ?
Ans: 25

Q: Entry to check: COc1cccc([C@@](O)(C(=O)N2CCC(CC3(C)CCN(c4ccc(C(=O)N(C)C)c(Cl)c4)CC3)CC2)C(F)(F)F)c1
Ans: 5

Q: Entry to check: Cc1cccc(C(O)(C(=O)N2CCC(CC3CCN(c4ccc(C(=O)N(C)C)c(Cl)n4)CC3)CC2)C(F)(F)F)c1 (stereo not drawn)
Ans: 9

Q: Entry to check: COCCN(C)C(=O)c1ccc(N2CCC(CC3CCN(C(=O)[C@](O)(c4ccccc4)C(F)(F)F)CC3)CC2)cc1Cl
Ans: 31

A. CN(C)C(=O)c1ccc(N2CCC(CC3CCN(C(=O)[C@](O)(c4cccc(C#N)c4)C(F)(F)F)CC3)CC2)cc1Cl
B. COc1cccc([C@@](O)(C(=O)N2CCC(CC3CCN(c4ccc(C(=O)N(C)C)c(C)c4)CC3)CC2)C(F)(F)F)c1
Q: I need your help: which of the pair A , B has higher Emax? Use the label to indicate which entry you chose.
Ans: A
(A: 29%, B: 6%)
